Cited source for all entries: patent US6183967

# assaySystem: Taq DNA polymerase (Thermus aquaticus, UniProt P19821 P19821:1-832)
# Sequence (P19821 whole entry, one chain of several): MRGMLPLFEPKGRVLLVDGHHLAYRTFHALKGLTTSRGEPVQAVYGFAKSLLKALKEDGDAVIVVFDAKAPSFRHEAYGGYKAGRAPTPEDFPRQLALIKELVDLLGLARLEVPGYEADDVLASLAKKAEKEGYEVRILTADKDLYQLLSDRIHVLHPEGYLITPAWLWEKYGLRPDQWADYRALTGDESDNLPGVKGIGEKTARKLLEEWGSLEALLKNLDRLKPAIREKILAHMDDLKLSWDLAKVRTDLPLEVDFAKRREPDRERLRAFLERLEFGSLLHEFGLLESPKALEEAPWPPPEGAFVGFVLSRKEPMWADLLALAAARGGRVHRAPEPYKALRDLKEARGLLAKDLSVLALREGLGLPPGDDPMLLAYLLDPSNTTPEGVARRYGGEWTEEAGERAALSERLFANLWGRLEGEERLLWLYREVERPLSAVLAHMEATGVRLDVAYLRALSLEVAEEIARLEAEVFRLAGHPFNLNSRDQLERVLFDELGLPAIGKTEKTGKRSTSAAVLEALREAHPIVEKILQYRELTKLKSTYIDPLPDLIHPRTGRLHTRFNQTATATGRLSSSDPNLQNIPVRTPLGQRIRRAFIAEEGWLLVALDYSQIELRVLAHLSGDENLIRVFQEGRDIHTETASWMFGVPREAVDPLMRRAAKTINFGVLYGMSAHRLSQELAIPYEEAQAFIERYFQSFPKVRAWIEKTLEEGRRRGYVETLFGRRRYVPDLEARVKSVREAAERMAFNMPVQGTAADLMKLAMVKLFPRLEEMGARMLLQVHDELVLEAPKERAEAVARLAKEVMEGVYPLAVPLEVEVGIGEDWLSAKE
# experimentalDetails: FP filter; 55C; IT50 52.3C
# experimentalContext: tags: rTaq, 94 kDa, Roche Molecular Systems; label: end-labeled

binder | Kd [nM]
ligand 15 (ssDNA) DNA: TTCTCGGTTGGTCTCTGGCGGAGCATGCACAGCGACATTCTCAGCGTTTTGTCGTCTTGTGTATGATTCGCTTTTCCC | 0.0138
